Each item that follows carries a reported IC50.
ASSAYED_SYSTEM: Or47a/Or83b (Drosophila melanogaster, UniProt P81921+Q9VNB5)
Construct: Full-length cDNAs for mosquito (Anopheles gambiae) odorant receptor (OR1, OR2, OR7, OR8, OR28), and fly (Drosophila melanogaster) odorant receptor (Or47a, Or83b); expressed in transfected cells
Sequence (P81921 whole entry): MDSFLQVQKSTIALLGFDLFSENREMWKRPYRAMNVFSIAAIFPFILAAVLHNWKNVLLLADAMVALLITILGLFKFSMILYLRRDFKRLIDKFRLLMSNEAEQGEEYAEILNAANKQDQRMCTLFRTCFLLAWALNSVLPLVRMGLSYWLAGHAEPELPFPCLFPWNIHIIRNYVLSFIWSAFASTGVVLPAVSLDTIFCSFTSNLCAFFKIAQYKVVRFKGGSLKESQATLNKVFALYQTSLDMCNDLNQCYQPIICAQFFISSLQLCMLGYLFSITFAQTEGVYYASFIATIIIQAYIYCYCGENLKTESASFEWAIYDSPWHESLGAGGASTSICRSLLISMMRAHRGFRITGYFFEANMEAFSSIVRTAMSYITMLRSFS
Sequence (Q9VNB5 whole entry): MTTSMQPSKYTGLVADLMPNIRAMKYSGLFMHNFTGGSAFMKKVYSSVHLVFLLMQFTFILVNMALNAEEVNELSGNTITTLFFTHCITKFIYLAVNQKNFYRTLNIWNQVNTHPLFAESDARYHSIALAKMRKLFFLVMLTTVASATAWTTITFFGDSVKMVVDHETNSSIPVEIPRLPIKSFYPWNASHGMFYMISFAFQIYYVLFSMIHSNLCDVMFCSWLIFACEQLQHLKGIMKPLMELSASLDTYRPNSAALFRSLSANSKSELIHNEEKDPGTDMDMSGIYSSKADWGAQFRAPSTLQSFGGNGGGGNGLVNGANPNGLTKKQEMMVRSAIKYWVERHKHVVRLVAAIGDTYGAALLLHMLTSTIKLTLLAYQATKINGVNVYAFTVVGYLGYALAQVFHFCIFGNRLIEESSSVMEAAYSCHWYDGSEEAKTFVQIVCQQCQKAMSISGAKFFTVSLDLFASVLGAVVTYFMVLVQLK
PROTOCOL_NOTES: Ca2+-imaging of stable Flip-In T-Rex cell line Or47a/Or83b
Format: cell-based
CONDITION_SUMMARY: Table B; read-out: IC50 OR47a
REPORTED_METRIC: IC50

1. Fc1ccccc1/C=N/Nc1nc(N2CCCCC2)nc(N2CCOCC2)n1
< 100 nM
2. Cc1cc(N(C)C2CCCCC2)nc(SCc2cccc(C(=O)N3CCCC3)c2)n1
> 1000 nM
3. COCCN(Cc1c(-c2ccccc2)noc1N(C)C1CCCCC1)C(=O)c1ccccc1OC
> 1000 nM
4. CCN(CC)c1onc(-c2ccc(F)cc2)c1CN(CCCOC)C(=O)c1ccc2c(c1)OCO2
> 1000 nM
5. CCNc1nc(NC(C)C)nc(N(C#N)Cc2ccccc2)n1
< 100 nM
